Data origin, for the record: patent US9708259B2

Answer each item with its documented EC50.
target or test system: human M1 (Homo sapiens, UniProt P11229)
Construct: expressed in transfected cells; host or cells: CHO cells
Sequence (P11229 whole entry): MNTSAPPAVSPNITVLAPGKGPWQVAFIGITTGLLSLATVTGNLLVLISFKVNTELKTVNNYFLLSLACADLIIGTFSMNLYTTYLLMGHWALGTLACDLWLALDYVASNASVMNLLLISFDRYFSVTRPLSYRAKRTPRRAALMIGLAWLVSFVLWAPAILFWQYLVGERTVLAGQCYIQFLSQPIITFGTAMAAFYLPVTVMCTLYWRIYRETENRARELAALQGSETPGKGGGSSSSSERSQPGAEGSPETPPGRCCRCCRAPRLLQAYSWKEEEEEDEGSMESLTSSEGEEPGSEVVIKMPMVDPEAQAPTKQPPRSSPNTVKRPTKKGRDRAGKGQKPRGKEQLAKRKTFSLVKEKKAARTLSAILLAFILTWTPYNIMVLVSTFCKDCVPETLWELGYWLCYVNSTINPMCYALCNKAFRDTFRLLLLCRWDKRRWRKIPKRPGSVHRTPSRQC
test name: M1 PAM assay (FLIPR intracellular calcium), human M1
Format: cell-based
settings: CHO human M1 cells, FLIPR Ca2+, with EC20 of acetylcholine; first value of the cell; read-out: hM1 EC50
Number in nM, nothing else.

Consider CNC(=O)c1ccc(Cn2cc(C(=O)NC3CCCC(F)(F)C3)c3c(F)cccc32)cc1F (stereo not drawn) . Its measured EC50 is 34

The molecule Cn1cc(-c2ccc(Cn3cc(C(=O)N[C@H]4CCCC[C@@H]4O)c4c(F)c(F)ccc43)cn2)cn1 showed EC50 equal to 174

EC50 in this record for Cn1cc(-c2ccc(Cn3cc(C(=O)N[C@@H]4CCCC(F)(F)[C@H]4O)c4c(F)cccc43)c(F)c2)cn1 : 29

Lab note: measured EC50 of Cn1cc(-c2ccc(Cn3nc(C(=O)N[C@@H]4CCCC[C@H]4O)c4c(F)cccc43)c(F)c2)cn1 was 295

What the record says about Cn1cc(-c2ccc(Cn3cc(C(=O)N[C@H]4CCC[C@@H]4O)c4c(F)cccc43)c(F)c2)cn1 : EC50 is 100

The value of EC50 measured for the molecule O=C(NC1CCOCC1)c1cn(Cc2ccc(-c3nc[nH]n3)cc2)c2cccc(F)c12 turned out to be 95

Quick note, EC50 for CNC(=O)c1ccc(Cn2cc(C(=O)NC3CCOC(C)(C)C3)c3c(F)cccc32)cc1 (stereo not drawn) landed at 6

response.value for NC(=O)c1cccc(Cn2cc(C(=O)N[C@H]3CCCC[C@@H]3O)c3c(F)cccc32)c1 (field: EC50) = 351

Record Cc1ccc(F)c2c(C(=O)N[C@H]3CCCC[C@@H]3O)cn(Cc3ccc(-c4cnn(C)c4)cc3)c12 , field EC50: 10.3

In plain terms, CO[C@H]1COC[C@@H]1NC(=O)c1cn(Cc2ccc(-c3cnn(C)c3)cc2)c2cccc(F)c12 has a documented EC50 of 278

Value of EC50 reported for the molecule O=C(N[C@H]1CCCC[C@@H]1O)c1cn(Cc2ccc(-c3cccnc3)cc2)c2cccc(F)c12 is 20

Record summary for CNC(=O)c1ccc(Cn2cc(C(=O)NC3CCOCC3)c3c(F)cccc32)cn1 : reported EC50 = 197

// EC50 value for Cn1cc(-c2ccc(Cn3cc(C(=O)NC4CCOCC4)c4c(F)cccc43)cn2)cn1 : 267

Value of EC50 reported for the molecule Cc1ccn(-c2ccc(Cn3cc(C(=O)N[C@H]4CCCC[C@@H]4O)c4c(F)c(F)ccc43)cc2)n1 is 343

Record Cn1cc(-c2ccc(Cn3cc(C(=O)N[C@H]4CCOC[C@@H]4O)c4c(F)cccc43)cc2)cn1 (single isomer, unassigned) , field EC50: 2.11

###

target or test system: ratM1 (Rattus norvegicus, UniProt P08482)
Construct: expressed in transfected cells; host or cells: CHO cells (stated generally for the assay, not specifically for rat M1)
Sequence (P08482 whole entry): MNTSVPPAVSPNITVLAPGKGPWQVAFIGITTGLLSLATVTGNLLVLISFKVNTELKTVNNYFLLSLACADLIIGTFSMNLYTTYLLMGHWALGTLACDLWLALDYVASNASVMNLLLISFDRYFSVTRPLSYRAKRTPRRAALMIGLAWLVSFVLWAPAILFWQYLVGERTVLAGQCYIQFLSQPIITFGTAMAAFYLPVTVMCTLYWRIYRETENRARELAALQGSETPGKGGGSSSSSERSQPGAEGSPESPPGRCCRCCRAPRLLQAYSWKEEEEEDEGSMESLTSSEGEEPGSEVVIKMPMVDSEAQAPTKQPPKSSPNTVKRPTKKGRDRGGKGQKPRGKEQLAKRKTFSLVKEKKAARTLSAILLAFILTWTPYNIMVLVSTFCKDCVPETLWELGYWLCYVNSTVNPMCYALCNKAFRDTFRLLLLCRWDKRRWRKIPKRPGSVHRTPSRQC
test name: M1 PAM assay (FLIPR intracellular calcium), rat M1
Type: cell-based
settings: rat M1, FLIPR Ca2+; second value of the cell; read-out: ratM1 EC50
value type: EC50 (nM)
Your answer should be a plain number; it is taken to be in nM.

Notebook: CNC(=O)c1ccc(Cn2cc(C(=O)N[C@H]3CCCC[C@@H]3O)c3c(F)cccc32)c(F)c1 [Example 86] , EC50 read as 13

Query O=C(N[C@H]1CCCC[C@@H]1O)c1cn(Cc2ccc(-c3ccno3)cc2)c2cccc(F)c12 [Example 138] yields EC50 of 38

Entry under test: Cc1ccc(F)c2c(C(=O)NC3CCOCC3)cn(Cc3ccc(-c4cnn(C)c4)cc3)c12 [Example 49] . Its EC50 was 52.5

Measured EC50, Cn1cc(-c2ccc(Cn3cc(C(=O)N[C@H]4CCOC[C@@H]4O)c4c(F)c(F)c(F)c(F)c43)cc2)cn1 (single isomer, unassigned) [Example 63] : 54.2

What the record says about Cn1cc(-c2ccc(Cn3cc(C(=O)N[C@@H]4CCCC(F)(F)[C@H]4O)c4c(F)cccc43)cc2)cn1 [Example 100] : EC50 is 15

The value of EC50 measured for the compound Cn1cc(-c2ccc(Cn3nc(C(=O)N[C@H]4CCOC[C@@H]4O)c4c(F)ccc(F)c43)cn2)cn1 [Example 74] turned out to be 48.9

COc1ccc(F)c2c(C(=O)N[C@H]3CCOC[C@@H]3O)cn(Cc3ccc(-c4cnn(C)c4)cc3)c12 [Example 150] yielded EC50 of 34
